Parameter: solubility kinetic at 30 min. Scope: all listed entries.
# method: Kinetic aqueous solubility by nephelometry, pH 6.5
# Format: physicochemical
# settings: phosphate buffer, pH 6.5, aqueous buffer, kinetic from dmso stock

Worked cases, solubility kinetic at 30 min given:
Cc1nc(NC2Cc3cc(F)c(F)cc3C2)c2c(C)noc2n1 ... 3.1 to 6.3 µg/mL
Cc1nc(NC2Cc3cc(F)c(F)cc3C2)c2c(C(F)(F)F)noc2n1 ... 1.6 to 3.1 µg/mL
Cc1nc(NC2CCc3cc(Cl)ccc3C2)c2c(C)noc2n1 (stereo not shown) ... 1.6 to 3.1 µg/mL

Now take the following molecule into account.
IN: I am curious: what solubility kinetic at 30 min value has been reported for Cc1nc(NC2CCc3cc(Br)ccc3C2)c2c(C)noc2n1 (stereo not shown) ?
OUT: < 1.6 µg/mL

---

# method: In vitro metabolism in mouse liver microsomes
# Type: in vitro ADME
# settings: mouse, liver microsomes
measurement-type: microsomal CLint (µL/min/mg)

Worked cases, microsomal CLint given:
Cc1nc(NC2CCc3cc(Br)ccc3C2)c2c(C)noc2n1 (centres unmarked) ... 138
Cc1nc(Nc2ccc(C)c(Cl)c2)c2c(C)noc2n1 ... 28
Cc1noc2nc(C(F)(F)F)nc(Nc3ccc(S(F)(F)(F)(F)F)cc3)c12 ... 26

A: Cc1nc(NC2CCc3cc(Cl)ccc3C2)c2c(C)noc2n1 (centres unmarked)
B: Cc1nc(NC2Cc3cc(F)c(F)cc3C2)c2c(C(F)(F)F)noc2n1
IN: # returns the entry with the larger microsomal CLint; inputs A and B Reply briefly: the label of your chosen item.
OUT: B
(B: 328 µL/min/mg, A: 179 µL/min/mg)

---

# method: In vitro metabolism in human liver microsomes
# Type: in vitro ADME
# settings: predicted hepatic extraction ratio, human liver microsomes
measurement-type: predicted Eh (H)

Cc1nc(Nc2ccc(C(F)(F)F)cc2)c2c(C)noc2n1 ... 0.48
Cc1nc(NC2CCc3cc(Br)ccc3C2)c2c(C)noc2n1 (stereo not shown) ... 0.42
Cc1noc2nc(C(F)(F)F)nc(Nc3ccc(S(F)(F)(F)(F)F)cc3)c12 ... 0.28
Cc1nc(NC2Cc3cc(F)c(F)cc3C2)c2c(C)noc2n1 ... 0.39

---

# method: Kinetic aqueous solubility by nephelometry, pH 6.5
# Assay type: physicochemical
# settings: phosphate buffer, pH 6.5, aqueous buffer, kinetic from dmso stock
measurement-type: solubility kinetic at 30 min

Worked cases, solubility kinetic at 30 min given:
Cc1noc2nc(C(F)(F)F)nc(Nc3ccc(S(F)(F)(F)(F)F)cc3)c12 ... 1.6 to 3.1 µg/mL
Cc1nc(Nc2ccc(C(F)(F)F)nc2)c2c(C)noc2n1 ... 25 to 50 µg/mL
Cc1nc(Nc2ccc(C(F)(F)F)cc2)c2c(C)noc2n1 ... 6.3 to 12.5 µg/mL
Cc1nc(Nc2ccc(S(F)(F)(F)(F)F)cc2)c2c(C(F)(F)F)noc2n1 ... < 1.6 µg/mL
Cc1nc(Nc2ccc(C(F)(F)F)cc2)c2c(C(F)(F)F)noc2n1 ... 1.6 to 3.1 µg/mL
Cc1noc2nc(C(F)(F)F)nc(Nc3ccc(C(F)(F)F)cc3)c12 ... 1.6 to 3.1 µg/mL
Cc1nc(NC2CCc3ccc(Cl)cc3C2)c2c(C)noc2n1 (stereo not drawn) ... 1.6 to 3.1 µg/mL
Cc1nc(Nc2ccc(S(F)(F)(F)(F)F)cc2)c2c(C)noc2n1 ... 6.3 to 12.5 µg/mL

IN: I am curious: what solubility kinetic at 30 min value has been reported for Cc1nc(NC2CCc3ccc(Br)cc3C2)c2c(C)noc2n1 (stereo not drawn) ?
OUT: < 1.6 µg/mL

Reference source: paper PMC6120730
